Recorded measurements of Kd, one per entry
biological target: T1, CTNI quality control recombinant protein (PK2-CTNI-1, 170120, produced by the applicant) (human, UniProt P19429 2-210, limits assumed); assay: AMC sensor kinetics, antibody captured, cTnI analyte
T1 construct: also called cardiac troponin I
T1 sequence (P19429 2-210 limits assumed): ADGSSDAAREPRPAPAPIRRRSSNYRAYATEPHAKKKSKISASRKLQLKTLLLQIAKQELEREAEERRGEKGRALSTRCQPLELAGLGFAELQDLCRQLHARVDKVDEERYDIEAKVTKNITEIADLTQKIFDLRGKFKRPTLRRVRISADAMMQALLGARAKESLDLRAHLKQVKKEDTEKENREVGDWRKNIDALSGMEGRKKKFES
Form entry: value (pM) — number only.

Mutation 1-53 (antibody, V domains shown, built as for Mutation 1) VH: EVQLQQSGAELVKPGASVKLSCTASGFNIKDYYMHWMKQRTEQGLDWIGRIDPEDAETKYAPEFQGKATITADTSSNTAYLQLSTLTSEDTAVYYCARYYSSYLPFVYWGQGTLVTASA VL: DVVMTQTPLSLSVSLGDQASISCRSSQSIIYSNRHTYLHWYLQKPGQSPKLLIFQLSNRFSGVPDRFSGSGSGTDFTLKINRVEAEDLGVYFCSQSTHIPYTFGSGTKLEIKR | 721
Mutation 1-32 (antibody, V domains shown, built as for Mutation 1) VH: EVQLQQSGAELVKPGASVKLSCTASGFNLKDYFMHWMKQRTEQGLDWIGRIDPEDGETRYAPEFQGKATITADTSSNTAYLQLSTLTSEDTAVYYCARYYSSYIPFVYWGQGTLVTASA VL: DVVMTQTPLSLSVSLGDQASISCRSSQSILYSNRHTYLHWYLQKPGQSPKLLIFQISNRFSGVPDRFSGSGSGTDFTLKINRVEAEDLGVYFCSQSTHLPFTFGSGTKLEIKR | 509

Could you now consider this next binder?
Input Mutation 1 (antibody, V domains shown, No residue numbers are printed, so each chain is built as FR1-CDR1-FR2-CDR2-FR3-CDR3-FR4-constant) VH: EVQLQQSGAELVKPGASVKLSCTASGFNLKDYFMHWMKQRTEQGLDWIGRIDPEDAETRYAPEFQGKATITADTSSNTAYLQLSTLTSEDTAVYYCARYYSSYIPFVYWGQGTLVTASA VL: DVVMTQTPLSLSVSLGDQASISCRSSQSIIYSNRHTYLHWYLQKPGQSPKLLIFQISNRFSGVPDRFSGSGSGTDFTLKINRVEAEDLGVYFCSQSTHLPFTFGSGTKLEIKR . Output Kd: 751
